Cited source: patent US6008227A

Biological target: dopamine transporter (Rattus norvegicus)
Construct: was used to label dopamine transporters in rat striatal membranes; from tissue; host or cells: rat striatal membranes
Sequence (P23977 whole entry): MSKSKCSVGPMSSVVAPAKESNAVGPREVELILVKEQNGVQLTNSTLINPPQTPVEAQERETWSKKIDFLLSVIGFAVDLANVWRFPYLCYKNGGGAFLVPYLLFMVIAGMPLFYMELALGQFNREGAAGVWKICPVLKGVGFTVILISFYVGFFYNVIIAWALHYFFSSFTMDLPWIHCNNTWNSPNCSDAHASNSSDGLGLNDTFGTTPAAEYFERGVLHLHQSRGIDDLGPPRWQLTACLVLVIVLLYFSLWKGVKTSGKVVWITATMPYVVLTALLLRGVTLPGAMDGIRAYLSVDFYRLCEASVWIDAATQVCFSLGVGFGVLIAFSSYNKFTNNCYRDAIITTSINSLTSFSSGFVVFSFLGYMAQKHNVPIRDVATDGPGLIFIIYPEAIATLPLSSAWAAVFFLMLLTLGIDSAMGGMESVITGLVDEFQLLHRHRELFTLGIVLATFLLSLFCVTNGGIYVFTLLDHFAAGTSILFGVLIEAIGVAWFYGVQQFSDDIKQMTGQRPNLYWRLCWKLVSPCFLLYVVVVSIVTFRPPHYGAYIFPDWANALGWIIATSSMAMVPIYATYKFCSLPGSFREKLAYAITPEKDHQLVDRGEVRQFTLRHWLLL
Assay: Displacement of [^125 I]RTI-55 binding to dopamine transporters in rat striatal membranes
pIC50: −log10 of the molar value.
reported_property: pIC50

Memo: CCC(=O)C1C(c2ccc3ccccc3c2)CC2CCC1N2C (single isomer, unassigned) , reported pIC50: ~10.52

----------
Target: dopamine transporter (Rattus norvegicus)
Construct: was used to label dopamine transporters in rat striatal membranes; from tissue; host or cells: rat striatal membranes
Test: Displacement of [^125 I]RTI-55 binding to dopamine transporters in rat striatal membranes
Conditions: [^125 I]RTI-55 10-20 pM, rat striatal membranes
Recorded pKi, one value per entry.
Quick note: pKi values are minus log10 of concentrations in mol/L.

Please review the entries below; each comes with its answer.
compound	measured_result
CCc1ccc([C@H]2C[C@@H]3CC[C@H]([C@H]2C(C)=O)N3C)cc1 (relative stereo)	6.82
CC(=O)[C@H]1[C@@H](c2ccc3ccccc3c2)C[C@@H]2CC[C@H]1N2C (relative stereo)	9.61
CCC(=O)[C@@H]1[C@@H](c2ccc3ccccc3c2)C[C@@H]2CC[C@H]1N2C (relative stereo)	8.60
CC(=O)[C@@H]1[C@@H](c2cccc3ccccc23)C[C@@H]2CC[C@H]1N2C (relative stereo)	7.01
CCc1ccc([C@H]2C[C@@H]3CC[C@H]([C@@H]2C(C)=O)N3C)cc1 (relative stereo)	5.64
CCC(=O)[C@H]1[C@@H](c2cccc3ccccc23)C[C@@H]2CC[C@H]1N2C (relative stereo)	8.27
CCC(=O)[C@@H]1[C@@H](c2ccc3cc(OC)ccc3c2)C[C@@H]2CC[C@H]1N2C (relative stereo)	7.26
CC(=O)[C@@H]1[C@@H](c2ccccc2)C[C@@H]2CC[C@H]1N2C (relative stereo)	5.14
COC(=O)[C@@H]1[C@@H](c2ccccc2)C[C@@H]2CC[C@H]1N2C (relative stereo)	5.69
CCC(=O)[C@H]1[C@@H](c2ccc(C)c3ccccc23)C[C@@H]2CC[C@H]1N2C (relative stereo)	7.60

In plain terms, CCC(=O)[C@@H]1[C@@H](c2ccc(C)cc2)C[C@@H]2CC[C@H]1N2C (relative stereo) has a documented pKi of 6.12

The compound listed as CCC(=O)[C@H]1[C@@H](c2ccc3ccccc3c2)C[C@@H]2CC[C@H]1N2C (relative stereo) shows pKi equal to 9.70

----------
Biological target: UniProt P31652
Sequence (P31652 whole entry): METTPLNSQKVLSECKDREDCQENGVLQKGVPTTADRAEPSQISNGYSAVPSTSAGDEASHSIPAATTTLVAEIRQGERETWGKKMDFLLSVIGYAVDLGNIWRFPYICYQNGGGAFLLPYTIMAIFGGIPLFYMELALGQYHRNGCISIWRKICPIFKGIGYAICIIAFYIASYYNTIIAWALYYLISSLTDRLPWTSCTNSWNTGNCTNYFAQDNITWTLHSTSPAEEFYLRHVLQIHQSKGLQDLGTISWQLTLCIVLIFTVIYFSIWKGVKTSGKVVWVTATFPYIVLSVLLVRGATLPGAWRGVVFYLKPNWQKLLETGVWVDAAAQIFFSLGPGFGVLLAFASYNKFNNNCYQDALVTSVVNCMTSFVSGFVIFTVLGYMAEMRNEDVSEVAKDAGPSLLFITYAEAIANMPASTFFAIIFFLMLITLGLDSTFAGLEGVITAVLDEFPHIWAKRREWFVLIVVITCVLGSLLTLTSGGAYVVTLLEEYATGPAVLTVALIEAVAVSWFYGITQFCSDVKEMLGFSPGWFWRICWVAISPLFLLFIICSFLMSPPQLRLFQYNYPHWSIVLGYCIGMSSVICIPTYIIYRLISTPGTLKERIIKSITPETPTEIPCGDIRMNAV
Assay: Displacement of [^3 H]paroxetine binding to 5-HT transporter sites in rat frontal cortex
Design: from tissue; host or cells: rat frontal cortex
Details: vs cocaine, [^3 H]paroxetine binding
reported_property: times more potent than cocaine at 5-HT transporter sites

compound	experimental_system	measured_result
CCC(=O)[C@H]1[C@@H](c2ccc3cc(OC)ccc3c2)C[C@@H]2CC[C@H]1N2C (relative stereo)	UniProt P31652	140 times
CCC(=O)[C@H]1[C@@H](c2ccc(C)cc2)C[C@@H]2CC[C@H]1N2C (relative stereo)	UniProt P31652	twice
CCC(=O)[C@H]1[C@@H](c2ccc(C(C)C)cc2)C[C@@H]2CC[C@H]1N2C (relative stereo)	UniProt P31652	8 times
CCC(=O)[C@H]1[C@@H](c2ccc3ccccc3c2)C[C@@H]2CC[C@H]1N2C (relative stereo)	UniProt P31652	480 times
